Reference source for all entries: the supplement of paper PMC10338343

System: MILI (PIWIL2) piRISC loaded with L1MC piRNA (26 nt);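 further: 1 nM active piRISC with 0.1 nM target library at 33 °C single turnover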
Assay: pre-steady-state target cleavage rate (min^-1); guide: L1MC piRNA 5'p-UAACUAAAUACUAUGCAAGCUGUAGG; MIWI and MILI are mouse PIWI proteins and EfPiwi is from a freshwater sponge; tags in brackets are library labels; higher = faster piRNA-guided slicing of the target
Details: auxiliary factor: none (no GTSF1)
The following sequences are shown together with reported pre-steady-state target cleavage rate values.
Measured parameter: pre-steady-state target cleavage rate

| Residue sequence | Test result |
| --- | --- |
| UCCUGGAACAGCUUGCAUUGUAUUUAGUAA | 0.00563 |
| UCCUGGAACAGCUUGCAUUGUAUUUAGUUA | 0.00894 |
| UCCUGGAACGAGCUUGCAUAGUAUUUAGUUA | 0.00792 |
| UCCUGGAUGUGCUUGCAUAGUAUAUUAGUUA | 0.00381 |
| UCCUGGAUGUGCUUGCAUAGUAUUUAGUUG [g2:g20:cont:t1G] | 0.00877 |
| UCCUGGAUCAGCUUGCAUAGUAUAUUAGUUA | 0.00593 |
| UCCUGGAUGUCCUUGCAUAGUCUUUAGUUA | 0.00468 |
| UCCUGGAUGAAGCUUGCAUAGUAUUUAGUUA | 0.0106 |
| UCCUGGAUCAGCUUGCAUAGUUUAUAGUUA | 0.00545 |
| UCCUGGAUGUGCGUUGCAUAGUAUUUAGUUA | 0.00925 |
| UCCUGCAACAGCUUGCAUACUAUUUAGUUA | 0.00386 |
| UCCUGGAUGUCGAACGUACGUAUUUAGUUA | < 0.0001 |
| UCCUGCAACACCUUGCAUAGUAUUUAGUUA | 0.00568 |
